For each entry below, report its pIC50 value.
target: T1, human ORL-1 receptor (opioid receptor like 1) (human, UniProt P41146 1-370); experiment: binding assay at ORL1 (taken as [3H]nociceptin displacement as in Table 1)
T1 construct: whole, on cells; Assays were run on membranes of CHO cells transfected with human ORL-1; also called opiate receptor like 1; nociceptin receptor
T1 sequence (P41146 whole entry): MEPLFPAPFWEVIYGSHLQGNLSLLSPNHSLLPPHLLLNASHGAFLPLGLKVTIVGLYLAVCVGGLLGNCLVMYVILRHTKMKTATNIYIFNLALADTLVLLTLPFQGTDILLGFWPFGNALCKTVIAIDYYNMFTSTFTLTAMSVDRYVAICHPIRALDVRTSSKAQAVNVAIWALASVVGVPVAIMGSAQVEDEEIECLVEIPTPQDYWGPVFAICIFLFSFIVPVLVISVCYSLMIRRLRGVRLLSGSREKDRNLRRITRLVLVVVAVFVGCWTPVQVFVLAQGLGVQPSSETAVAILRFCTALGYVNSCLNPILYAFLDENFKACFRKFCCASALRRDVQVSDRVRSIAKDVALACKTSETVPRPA
* marks the point of attachment. Hexanoyl = CCCCCC(=O)*; Propionyl = CCC(=O)*
Answers are plain numbers, as −log10 of the molar value.

# count of solved cases: 6
>>> numericvalue("Hexanoyl-AYYRWR-NH2 (SMILES CCCCCC(=O)N[C@@H](C)C(=O)N[C@@H](Cc1ccc(O)cc1)C(=O)N[C@@H](Cc1ccc(O)cc1)C(=O)N[C@@H](CCCNC(=N)N)C(=O)N[C@@H](Cc1c[nH]c2ccccc12)C(=O)N[C@@H](CCCNC(=N)N)C(N)=O) [IV-33-B Hexanoyl-AYYRWR-NH2]")
5.99
>>> numericvalue("Propionyl-RYYRAR-NH2 (SMILES CCC(=O)N[C@@H](CCCNC(=N)N)C(=O)N[C@@H](Cc1ccc(O)cc1)C(=O)N[C@@H](Cc1ccc(O)cc1)C(=O)N[C@@H](CCCNC(=N)N)C(=O)N[C@@H](C)C(=O)N[C@@H](CCCNC(=N)N)C(N)=O) [IV-29-B Propionyl-RYYRAR-NH2]")
5.72
>>> numericvalue("Propionyl-RYYAWR-NH2 (SMILES CCC(=O)N[C@@H](CCCNC(=N)N)C(=O)N[C@@H](Cc1ccc(O)cc1)C(=O)N[C@@H](Cc1ccc(O)cc1)C(=O)N[C@@H](C)C(=O)N[C@@H](Cc1c[nH]c2ccccc12)C(=O)N[C@@H](CCCNC(=N)N)C(N)=O) [IV-27-B Propionyl-RYYAWR-NH2]")
6.40
>>> numericvalue("Hexanoyl-RYYAWR-NH2 (SMILES CCCCCC(=O)N[C@@H](CCCNC(=N)N)C(=O)N[C@@H](Cc1ccc(O)cc1)C(=O)N[C@@H](Cc1ccc(O)cc1)C(=O)N[C@@H](C)C(=O)N[C@@H](Cc1c[nH]c2ccccc12)C(=O)N[C@@H](CCCNC(=N)N)C(N)=O) [IV-39-B Hexanoyl-RYYAWR-NH2]")
6.00
>>> numericvalue("Hexanoyl-RYYRAR-NH2 (SMILES CCCCCC(=O)N[C@@H](CCCNC(=N)N)C(=O)N[C@@H](Cc1ccc(O)cc1)C(=O)N[C@@H](Cc1ccc(O)cc1)C(=O)N[C@@H](CCCNC(=N)N)C(=O)N[C@@H](C)C(=O)N[C@@H](CCCNC(=N)N)C(N)=O) [IV-41-B Hexanoyl-RYYRAR-NH2]")
6.15
>>> numericvalue("Propionyl-RYYRWA-NH2 (SMILES CCC(=O)N[C@@H](CCCNC(=N)N)C(=O)N[C@@H](Cc1ccc(O)cc1)C(=O)N[C@@H](Cc1ccc(O)cc1)C(=O)N[C@@H](CCCNC(=N)N)C(=O)N[C@@H](Cc1c[nH]c2ccccc12)C(=O)N[C@@H](C)C(N)=O) [IV-31-B Propionyl-RYYRWA-NH2]")
7.12

// each listed binder needs a value for pIC50
1. Hexanoyl-RYARWR-NH2 (SMILES CCCCCC(=O)N[C@@H](CCCNC(=N)N)C(=O)N[C@@H](Cc1ccc(O)cc1)C(=O)N[C@@H](C)C(=O)N[C@@H](CCCNC(=N)N)C(=O)N[C@@H](Cc1c[nH]c2ccccc12)C(=O)N[C@@H](CCCNC(=N)N)C(N)=O) [IV-37-B Hexanoyl-RYARWR-NH2]
2. Propionyl-RYARWR-NH2 (SMILES CCC(=O)N[C@@H](CCCNC(=N)N)C(=O)N[C@@H](Cc1ccc(O)cc1)C(=O)N[C@@H](C)C(=O)N[C@@H](CCCNC(=N)N)C(=O)N[C@@H](Cc1c[nH]c2ccccc12)C(=O)N[C@@H](CCCNC(=N)N)C(N)=O) [IV-25-B Propionyl-RYARWR-NH2]
3. Hexanoyl-RYYRWA-NH2 (SMILES CCCCCC(=O)N[C@@H](CCCNC(=N)N)C(=O)N[C@@H](Cc1ccc(O)cc1)C(=O)N[C@@H](Cc1ccc(O)cc1)C(=O)N[C@@H](CCCNC(=N)N)C(=O)N[C@@H](Cc1c[nH]c2ccccc12)C(=O)N[C@@H](C)C(N)=O) [IV-43-B Hexanoyl-RYYRWA-NH2]
4. Propionyl-AYYRWR-NH2 (SMILES CCC(=O)N[C@@H](C)C(=O)N[C@@H](Cc1ccc(O)cc1)C(=O)N[C@@H](Cc1ccc(O)cc1)C(=O)N[C@@H](CCCNC(=N)N)C(=O)N[C@@H](Cc1c[nH]c2ccccc12)C(=O)N[C@@H](CCCNC(=N)N)C(N)=O) [IV-21-C Propionyl-AYYRWR-NH2]
5. Hexanoyl-RAYRWR-NH2 (SMILES CCCCCC(=O)N[C@@H](CCCNC(=N)N)C(=O)N[C@@H](C)C(=O)N[C@@H](Cc1ccc(O)cc1)C(=O)N[C@@H](CCCNC(=N)N)C(=O)N[C@@H](Cc1c[nH]c2ccccc12)C(=O)N[C@@H](CCCNC(=N)N)C(N)=O) [IV-35-B Hexanoyl-RAYRWR-NH2]
6. Propionyl-RAYRWR-NH2 (SMILES CCC(=O)N[C@@H](CCCNC(=N)N)C(=O)N[C@@H](C)C(=O)N[C@@H](Cc1ccc(O)cc1)C(=O)N[C@@H](CCCNC(=N)N)C(=O)N[C@@H](Cc1c[nH]c2ccccc12)C(=O)N[C@@H](CCCNC(=N)N)C(N)=O) [IV-23-B Propionyl-RAYRWR-NH2]

1: 7.10; 2: 6.31; 3: 6.51; 4: 5.75; 5: 6.95; 6: 6.74

Hey, just so you know, these numbers are from patent US20030166571A1.
